Tested on: MCF7
method_summary: Antiproliferative activity against human MCF7 cells assessed as inhibition of cell proliferation after 72 hrs by MTT assay
Type: functional, cell-based
condition_summary: MCF7, 72 h
endpoint: IC50

Asked: Data request, read-out IC50, for C=C1C(=O)O[C@@H]2C[C@]3(C)O[C@@H](O[C@@H]3CC(=O)C(C)=O)[C@@H](OC(=O)CC(C)C)[C@@H]12 (relative stereo)
Given back: > 10 µM

Asked: # iterate: C=C1C(=O)O[C@@H]2/C=C(\C)[C@H](O)C[C@H]3O[C@]3(C)C[C@@H](OC(=O)CC(C)C)[C@@H]12 (relative stereo)
Given back: 7.2 µM

Asked: # iterate: C=C1C(=O)O[C@@H]2[C@@H](O)[C@@H](C)C3=CC(=O)[C@](C)(O3)[C@H](O)[C@@H](OC(=O)CC(C)C)[C@@H]12 (relative stereo)
Given back: > 10 µM

Asked: # iterate: C=C1C(=O)O[C@@H]2C[C@@]3(C)O[C@H](O[C@H]3CC(=O)C(C)=O)[C@@H](OC(=O)CC(C)C)[C@@H]12 (relative stereo)
Given back: > 10 µM

Asked: # iterate: C=C1C(=O)O[C@@H]2[C@@H]1[C@H](OC(=O)CC(C)C)C[C@@]1(C)[C@H](O)C[C@H](OC(C)=O)C(=C)[C@H]21 (relative stereo)
Given back: > 10 µM
